measured.target: UGT2B17 (Homo sapiens, UniProt O75795)
Sequence (O75795 whole entry): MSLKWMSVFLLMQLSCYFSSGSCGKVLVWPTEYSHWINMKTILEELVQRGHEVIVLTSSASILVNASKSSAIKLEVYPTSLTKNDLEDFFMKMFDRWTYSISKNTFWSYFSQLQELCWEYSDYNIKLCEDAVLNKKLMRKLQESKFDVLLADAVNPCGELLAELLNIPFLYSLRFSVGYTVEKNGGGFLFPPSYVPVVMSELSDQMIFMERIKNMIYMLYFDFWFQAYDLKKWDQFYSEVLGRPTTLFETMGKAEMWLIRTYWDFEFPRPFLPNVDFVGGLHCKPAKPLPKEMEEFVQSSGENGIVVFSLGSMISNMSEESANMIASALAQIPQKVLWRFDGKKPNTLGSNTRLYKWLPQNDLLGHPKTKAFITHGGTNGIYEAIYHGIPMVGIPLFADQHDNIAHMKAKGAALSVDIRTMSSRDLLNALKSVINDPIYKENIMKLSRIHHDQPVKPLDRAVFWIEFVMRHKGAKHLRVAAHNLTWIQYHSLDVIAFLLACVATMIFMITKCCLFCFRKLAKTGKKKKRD
test.summary: Inhibition of human recombinant UGT2B17 at 25 uM by fluorescence spectroscopy
readout.name: inhibition at 25 µM (%)

[[record]]
smiles_string = "CC1(C)CCC[C@]2(C)[C@@H]([C@@H](O)c3ccccc3)[C@H]3CC[C@@H]2[C@H]31"
numeric_value = 70


---

measured.target: UGT2B10 (Homo sapiens)
Sequence (P36537 whole entry): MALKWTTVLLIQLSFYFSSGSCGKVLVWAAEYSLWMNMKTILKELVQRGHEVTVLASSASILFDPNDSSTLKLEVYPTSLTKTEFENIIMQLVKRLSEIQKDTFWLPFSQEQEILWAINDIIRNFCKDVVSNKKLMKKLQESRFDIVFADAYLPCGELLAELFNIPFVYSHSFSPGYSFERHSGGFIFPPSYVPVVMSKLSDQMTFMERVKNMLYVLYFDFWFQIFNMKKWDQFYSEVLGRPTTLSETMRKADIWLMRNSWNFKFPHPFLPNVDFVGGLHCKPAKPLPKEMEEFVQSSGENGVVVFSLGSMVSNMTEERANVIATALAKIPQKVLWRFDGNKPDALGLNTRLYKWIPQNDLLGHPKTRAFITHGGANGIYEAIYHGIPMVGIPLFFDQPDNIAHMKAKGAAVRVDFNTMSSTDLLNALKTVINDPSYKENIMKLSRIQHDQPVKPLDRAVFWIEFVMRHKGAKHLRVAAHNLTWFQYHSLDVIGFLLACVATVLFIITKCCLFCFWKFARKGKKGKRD
test.summary: Inhibition of human recombinant UGT2B10 at 25 uM by fluorescence spectroscopy
Design: scale not given: the % may be the effect or the level left
condition.summary: read-out: Activity
readout.name: activity at 25 µM (%)

[[record]]
smiles_string = "CC1(C)CCC[C@]2(C)[C@@H]([C@@H](O)c3ccccc3)[C@H]3CC[C@@H]2[C@H]31"
numeric_value = 30

